tested on: A431 cell line (squamous cell carcinoma); test: Cell viability, MTT assay, A431; format: cell-based; details: Homo sapiens, A-431, 24 h, 24 h incubation, MTT endpoint, A431; read-out: IC50 (MTT) A431
Below, each of the compounds is paired with its reported IC50 value.

CC1CN(C(C)(C)C)C(=O)C1(Cl)Cl (stereo not drawn) :: > 250 µg/mL
CC1CN(C2CCC(=O)CC2)C(=O)C1(Cl)Cl (stereo not drawn) :: > 250 µg/mL

Okay, next one:
According to the records, this compound CC(C)(C)N1CC(CCl)C(Cl)(Cl)C1=O (stereo not drawn) displays IC50 of > 250 µg/mL
